Target: NAD-dependent protein deacetylase sirtuin-2 (Homo sapiens, UniProt Q8IXJ6)
Sequence (Q8IXJ6 whole entry): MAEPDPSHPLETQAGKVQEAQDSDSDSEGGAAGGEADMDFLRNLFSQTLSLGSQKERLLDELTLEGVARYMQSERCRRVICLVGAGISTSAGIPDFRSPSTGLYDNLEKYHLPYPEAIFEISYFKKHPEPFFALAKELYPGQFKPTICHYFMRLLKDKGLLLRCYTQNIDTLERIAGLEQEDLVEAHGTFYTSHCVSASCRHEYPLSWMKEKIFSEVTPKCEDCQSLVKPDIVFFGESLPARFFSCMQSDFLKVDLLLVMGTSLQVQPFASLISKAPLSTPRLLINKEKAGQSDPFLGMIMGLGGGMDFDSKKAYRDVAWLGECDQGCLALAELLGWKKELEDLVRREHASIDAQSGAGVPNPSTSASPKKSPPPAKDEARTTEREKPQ
// molecules with reported IC50 on NAD-dependent protein deacetylase sirtuin-2 (Homo sapiens, UniProt Q8IXJ6), multi-publication
OBSERVED PROPERTY: IC50 (µM)

[
  {
    "MOLECULE": "BrCCCCc1nc(-c2ccc(Br)cc2)no1",
    "UNIT SYMBOL": "µM",
    "IC50": 2.6
  },
  {
    "MOLECULE": "CC(C)(C)OC(=O)Nc1cccc(-c2noc(C(=O)NNC(=S)Nc3ccc(C(F)(F)F)cc3)n2)c1",
    "UNIT SYMBOL": "µM",
    "IC50": 129
  },
  {
    "MOLECULE": "OCCCc1nc(-c2ccc(Cl)cc2)no1",
    "UNIT SYMBOL": "µM",
    "IC50": 41.2
  },
  {
    "MOLECULE": "CCC(=S)NCCCC[C@H](NC(=O)OCc1ccccc1)C(=O)N[C@@H](Cc1c[nH]c2ccccc12)C(=O)NC(C)C",
    "UNIT SYMBOL": "µM",
    "IC50": 2.2
  }
]

a. NC(=O)c1cncc(Nc2cccc3ccccc23)c1
b. COC(=O)[C@H](C)NC(=O)[C@H](CCCCNC(=O)C1=CCCCC1)NC(=O)[C@H](C)NC(C)=O
[in] // compare measured IC50 between a and b ; output the lower one Selection: enter the item's label.
[out] a

1. Oc1ccccc1/C=N/c1ccc(/N=C/c2ccccc2O)cc1
2. O=C(CNC(=O)c1ccccc1Nc1cccc(OCCc2ccccc2)c1)NCCCC[C@@H]1NC(=O)CNC1=O
[in] // compare measured IC50 between 1 and 2 ; output the lower one Selection: enter the item's label.
[out] 2

====

// molecules with reported IC50 on NAD-dependent protein deacetylase sirtuin-2 (Homo sapiens, UniProt Q8IXJ6), multi-publication
OBSERVED PROPERTY: IC50 (µM)

Known results for molecules:
[
  {
    "MOLECULE": "COC(=O)[C@H](C)NC(=O)[C@H](CCCCNC(C)=O)NC(=O)[C@H](C)NC(C)=O",
    "IC50 / µM": 180
  },
  {
    "MOLECULE": "NC(=O)C1CN(Cc2ccccc2O)c2ccccc2O1 (stereo unspecified)",
    "IC50 / µM": 12.3
  },
  {
    "MOLECULE": "NC(=O)c1cncc(Sc2ccc3ccccc3c2)c1",
    "IC50 / µM": 12.1
  }
]

A. O=C(/C=C/c1ccc(OCc2ccccc2)cc1)NC1(C(=O)NCCc2c[nH]c3ccccc23)CCNCC1
B. NC(=O)C1CN(Cc2ccc3nonc3c2)c2ccccc2O1 (stereo unspecified)
[in] // compare measured IC50 between A and B ; output the lower one Selection: enter the item's label.
[out] B
(B: 0.6 µM, A: 63 µM)
